List of EC50 (nM), inhibition of bead-bound human CD73 enzymatic activity values.
system_under_test: T1, rhCD73 bound to his-tag magnet beads (human, UniProt P21589 27-547, limits assumed)
T1 sequence: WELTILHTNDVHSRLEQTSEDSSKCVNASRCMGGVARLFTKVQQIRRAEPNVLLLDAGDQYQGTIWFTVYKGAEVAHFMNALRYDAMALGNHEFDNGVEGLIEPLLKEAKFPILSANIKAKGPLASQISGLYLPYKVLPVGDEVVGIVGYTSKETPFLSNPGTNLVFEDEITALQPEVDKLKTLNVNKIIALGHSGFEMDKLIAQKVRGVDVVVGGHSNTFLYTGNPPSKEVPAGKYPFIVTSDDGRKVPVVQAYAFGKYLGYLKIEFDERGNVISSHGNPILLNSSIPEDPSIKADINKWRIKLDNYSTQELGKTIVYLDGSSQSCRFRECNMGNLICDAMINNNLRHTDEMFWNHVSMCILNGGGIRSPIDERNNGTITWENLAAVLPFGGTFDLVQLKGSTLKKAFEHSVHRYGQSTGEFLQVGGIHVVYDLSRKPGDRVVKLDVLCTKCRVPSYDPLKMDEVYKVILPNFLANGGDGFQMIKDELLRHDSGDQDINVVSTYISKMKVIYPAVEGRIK
assay: cell-based or functional assay
Write the value in nM as a bare number.

11A6 (antibody, human IgG1, kappa, V domains shown, IgG1za; also called 11A6-1) VH: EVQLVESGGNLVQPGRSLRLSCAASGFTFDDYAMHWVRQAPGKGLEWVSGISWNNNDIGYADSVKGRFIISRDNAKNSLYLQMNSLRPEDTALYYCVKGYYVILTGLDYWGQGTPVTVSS VL: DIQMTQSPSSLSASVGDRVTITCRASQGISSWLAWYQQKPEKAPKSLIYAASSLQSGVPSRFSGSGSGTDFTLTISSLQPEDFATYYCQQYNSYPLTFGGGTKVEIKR
3.12

// below: EC50 (nM), inhibition of bead-bound human CD73 enzymatic activity requested for another binder
Any idea what its EC50 (nM), inhibition of bead-bound human CD73 enzymatic activity is? The binder is 11F11 (antibody, human IgG2, kappa, V domains shown, Human IgG2; also called 11F11-2) VH: QVQLVESGGGVVQPGRSLRLSCATSGFTFSNYGMHWVRQAPGKGLEWVAVILYDGSNKYYPDSVKGRFTISRDNSKNTLYLQMNSLRAEDTAVYYCARGGSSWYPDSFDIWGQGTMVTVSS VL: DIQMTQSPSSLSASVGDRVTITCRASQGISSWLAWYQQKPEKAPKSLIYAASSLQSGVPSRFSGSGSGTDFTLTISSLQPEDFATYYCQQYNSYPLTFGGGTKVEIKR
3.98
